assayed_system: Ba/F3 EGFR-Del19/C797S (Homo sapiens, UniProt P00533, C797S, cells depend on it, form not given)
Sequence (P00533 with tags, fused parts or gaps DEL746-750/C797S, form open): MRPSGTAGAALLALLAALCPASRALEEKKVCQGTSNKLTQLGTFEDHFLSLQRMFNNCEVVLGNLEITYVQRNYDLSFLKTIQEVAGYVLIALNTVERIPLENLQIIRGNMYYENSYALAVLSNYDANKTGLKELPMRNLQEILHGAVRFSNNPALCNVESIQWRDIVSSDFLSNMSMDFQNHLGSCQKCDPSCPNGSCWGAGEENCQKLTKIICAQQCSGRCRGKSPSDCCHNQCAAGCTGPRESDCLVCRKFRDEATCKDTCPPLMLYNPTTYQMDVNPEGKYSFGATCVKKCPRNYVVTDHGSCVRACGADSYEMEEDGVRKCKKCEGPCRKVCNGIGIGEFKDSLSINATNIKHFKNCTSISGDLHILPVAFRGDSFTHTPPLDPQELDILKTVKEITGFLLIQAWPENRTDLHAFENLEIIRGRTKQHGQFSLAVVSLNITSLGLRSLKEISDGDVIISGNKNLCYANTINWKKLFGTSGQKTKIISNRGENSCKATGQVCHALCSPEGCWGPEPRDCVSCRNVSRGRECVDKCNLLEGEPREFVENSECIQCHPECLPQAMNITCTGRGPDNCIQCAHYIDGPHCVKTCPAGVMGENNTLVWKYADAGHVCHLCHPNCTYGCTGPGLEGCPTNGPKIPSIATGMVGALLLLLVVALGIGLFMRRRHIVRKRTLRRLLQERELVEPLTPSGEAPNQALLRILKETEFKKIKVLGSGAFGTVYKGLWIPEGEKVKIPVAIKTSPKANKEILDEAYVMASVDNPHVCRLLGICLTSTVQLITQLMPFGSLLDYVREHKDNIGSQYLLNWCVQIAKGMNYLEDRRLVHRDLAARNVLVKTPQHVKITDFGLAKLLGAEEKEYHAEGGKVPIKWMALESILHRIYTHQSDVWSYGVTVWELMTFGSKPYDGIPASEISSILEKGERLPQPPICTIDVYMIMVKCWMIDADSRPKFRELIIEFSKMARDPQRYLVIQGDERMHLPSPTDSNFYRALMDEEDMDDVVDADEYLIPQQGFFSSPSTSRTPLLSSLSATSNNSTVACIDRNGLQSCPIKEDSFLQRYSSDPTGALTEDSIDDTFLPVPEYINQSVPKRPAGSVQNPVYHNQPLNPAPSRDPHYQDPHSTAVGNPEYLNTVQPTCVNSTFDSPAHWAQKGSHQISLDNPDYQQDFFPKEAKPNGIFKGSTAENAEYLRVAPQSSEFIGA
experimental_protocol: Ba/F3 viability assay (CellTiter-Glo), EGFR-Del19/C797S (DC)
Assay type: cell-based
condition_set: Ba/F3 EGFR-Del19/C797S anti-proliferation; read-out: BAF3 DC IC50
Each record here notes measured GI50.
measured_metric: GI50

                         compound_structure  measured_metric  value_reported
0  C[C@H]1CCOc2c(cnn2C)-c2nccc(n2)Nc2cc(c(-c3ccc(CN4CCN(C)CC4)cc3)cn2)O1             GI50         < 50 nM
1  C[C@H]1CCOc2c(cnn2C)-c2nccc(n2)Nc2cc(c(-c3cccc(CN4CCN(C)CC4)c3)cn2)O1             GI50         < 50 nM
2  CCOc1nn(-c2ccncc2)cc1-c1cnc2cc1O[C@@H](C)CCOc1c(cnn1C)-c1nccc(n1)N2             GI50         < 50 nM
3  C[C@H]1CCOc2c(cnn2C)-c2nccc(n2)Nc2cc(c(-c3cnc(N4CCN(C)CC4)c(OCC(F)(F)F)c3)cn2)O1             GI50    50 to 100 nM
4  C[C@H]1CCOc2c(cnn2C)-c2nccc(n2)Nc2cc(c(-c3cnn(C4CCNCC4)c3)cn2)O1             GI50         < 50 nM
5  CCOc1nn(C2CC2)cc1-c1cnc2cc1O[C@@H](C)CCOc1c(cnn1C)-c1nccc(n1)N2             GI50         < 50 nM
6  C[C@H]1CCOc2c(cnn2C)-c2nccc(n2)Nc2cc(c(-c3cccc(NCCN(C)C)c3)cn2)O1             GI50         < 50 nM
7  C[C@H]1CCOc2c(cnn2C)-c2nccc(n2)Nc2cc(c(Nc3ccn(C)n3)cn2)O1             GI50         < 50 nM
